Listed compounds paired with reported pIC50
ASSAY SYSTEM: KDM5B (Homo sapiens (Human), UniProt Q9UGL1)
Sequence (Q9UGL1 whole entry): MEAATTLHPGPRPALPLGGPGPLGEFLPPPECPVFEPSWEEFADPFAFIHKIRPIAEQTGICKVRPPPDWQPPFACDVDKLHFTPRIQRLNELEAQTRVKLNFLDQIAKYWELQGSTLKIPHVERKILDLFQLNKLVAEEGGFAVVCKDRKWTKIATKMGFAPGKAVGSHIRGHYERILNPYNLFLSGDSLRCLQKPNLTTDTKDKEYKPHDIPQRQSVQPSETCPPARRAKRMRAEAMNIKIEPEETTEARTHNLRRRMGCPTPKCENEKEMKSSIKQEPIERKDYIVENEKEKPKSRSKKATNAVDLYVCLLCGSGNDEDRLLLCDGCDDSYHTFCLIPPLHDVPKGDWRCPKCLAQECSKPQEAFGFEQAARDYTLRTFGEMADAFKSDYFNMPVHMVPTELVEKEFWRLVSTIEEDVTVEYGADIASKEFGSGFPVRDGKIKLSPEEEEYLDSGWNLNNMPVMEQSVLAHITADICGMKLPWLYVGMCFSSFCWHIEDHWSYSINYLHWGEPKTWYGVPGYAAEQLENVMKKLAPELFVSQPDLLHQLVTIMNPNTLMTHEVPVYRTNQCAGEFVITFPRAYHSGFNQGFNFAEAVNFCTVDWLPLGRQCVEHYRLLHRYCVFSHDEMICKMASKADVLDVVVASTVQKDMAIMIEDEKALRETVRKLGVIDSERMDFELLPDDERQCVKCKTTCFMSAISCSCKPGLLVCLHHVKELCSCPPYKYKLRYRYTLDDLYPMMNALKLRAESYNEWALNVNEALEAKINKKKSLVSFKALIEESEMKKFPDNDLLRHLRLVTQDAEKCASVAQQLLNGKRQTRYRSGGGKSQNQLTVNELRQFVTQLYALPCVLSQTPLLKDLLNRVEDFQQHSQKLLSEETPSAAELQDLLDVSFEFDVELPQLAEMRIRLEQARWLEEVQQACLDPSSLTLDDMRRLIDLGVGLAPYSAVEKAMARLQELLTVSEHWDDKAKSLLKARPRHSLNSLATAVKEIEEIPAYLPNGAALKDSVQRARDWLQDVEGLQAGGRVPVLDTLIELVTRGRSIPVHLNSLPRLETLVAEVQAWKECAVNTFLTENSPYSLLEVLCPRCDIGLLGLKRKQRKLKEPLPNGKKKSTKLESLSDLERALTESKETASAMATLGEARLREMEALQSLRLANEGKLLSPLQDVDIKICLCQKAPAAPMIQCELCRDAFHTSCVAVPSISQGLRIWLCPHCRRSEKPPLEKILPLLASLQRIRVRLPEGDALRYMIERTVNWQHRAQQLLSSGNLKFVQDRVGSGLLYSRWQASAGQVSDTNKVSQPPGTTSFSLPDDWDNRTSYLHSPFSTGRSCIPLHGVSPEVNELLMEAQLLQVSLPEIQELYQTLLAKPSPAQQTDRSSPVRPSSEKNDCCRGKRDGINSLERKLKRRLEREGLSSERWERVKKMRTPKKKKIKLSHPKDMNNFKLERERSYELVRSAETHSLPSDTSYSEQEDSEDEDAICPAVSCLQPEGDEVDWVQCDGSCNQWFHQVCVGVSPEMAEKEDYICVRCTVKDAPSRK
ASSAY NOTES: KDM5B TR-FRET Enzyme Activity Assay
STATED CONDITIONS: LANCE TR-FRET; 5 nM full-length recombinant KDM5B; ten point titration 100000 nM to 5.08 nM
Quick note: pIC50 values are minus log10 of concentrations in mol/L.

- SMILES STRUCTURE: "CCc1cc(=O)n2ncnc2[nH]1"
  pIC50: 4.66
- SMILES STRUCTURE: "CC(C)c1c(-c2cnn(C3CCC3)c2)[nH]c2ncnn2c1=O"
  pIC50: 8.29
- SMILES STRUCTURE: "CC(C)c1c(-c2ccc(N3CCS(=O)(=O)CC3)cc2)[nH]c2ncnn2c1=O"
  pIC50: 7.87
- SMILES STRUCTURE: "CCOC(=O)Cc1ccc(-c2[nH]c3ncnn3c(=O)c2C(C)C)cc1"
  pIC50: 7.76
- SMILES STRUCTURE: "CC(C)c1c(-c2ccc(-n3cccn3)cc2)[nH]c2ncnn2c1=O"
  pIC50: 8.06
- SMILES STRUCTURE: "CC(C)c1c(-c2ccc3c(cnn3C)c2)[nH]c2ncnn2c1=O"
  pIC50: 7.98
- SMILES STRUCTURE: "Cc1[nH]ncc1-c1[nH]c2ncnn2c(=O)c1C(C)C"
  pIC50: 6.81
- SMILES STRUCTURE: "Cc1noc(C)c1-c1[nH]c2ncnn2c(=O)c1C(C)C"
  pIC50: 4.96

Attention now shifts to the item below.
Quote pIC50 reported for CC(C)c1c(-c2cccc(N3CCCCC3)c2)[nH]c2ncnn2c1=O please.
7.13

----------
ASSAY SYSTEM: UniProt:Q9UGL1
ASSAY NOTES: KDM5B TR-FRET Enzyme Activity Assay
STATED CONDITIONS: LANCE TR-FRET; 5 nM full-length recombinant KDM5B; ten point titration 100000 nM to 5.08 nM
QUANTITY MEASURED: IC50 (nM)
All answers are understood in nM, so give the number only.

Some entries whose results are on file:
- MOLECULE: "CC(C)c1c(-c2cncc(C(C)(C)O)c2)[nH]c2ncnn2c1=O [Example 11-121]"
  ASSAY SYSTEM: "UniProt:Q9UGL1"
  MEASUREMENT UNIT: "nM"
  IC50: 43.5
- MOLECULE: "CCCc1[nH]c2ncnn2c(=O)c1-c1ccccc1 [Example 8-32]"
  ASSAY SYSTEM: "UniProt:Q9UGL1"
  MEASUREMENT UNIT: "nM"
  IC50: 37600
- MOLECULE: "CC(C)c1c(-c2ccc(-n3nccn3)cc2)[nH]c2ncnn2c1=O [Example 11-97]"
  ASSAY SYSTEM: "UniProt:Q9UGL1"
  MEASUREMENT UNIT: "nM"
  IC50: 32.4
- MOLECULE: "CC(C)c1c(-c2cnn3c2CCCC3)[nH]c2ncnn2c1=O [Example 11-53]"
  ASSAY SYSTEM: "UniProt:Q9UGL1"
  MEASUREMENT UNIT: "nM"
  IC50: 75.1

Return the recorded IC50 value; entry: CC(C)c1c(-c2cnn(Cc3ccccn3)c2)[nH]c2ncnn2c1=O [Example 11-39]
5.83

Look up and state reported IC50 for CC(C)c1c(C2=CCC(C)(C)CC2)[nH]c2ncnn2c1=O [Example 11-62]
1030

Give the value of IC50 reported for the following: Cn1ccc(-c2cc(=O)n3ncnc3[nH]2)n1 [Example 8-13]
29200

Give reported IC50 value for O=c1cc(-c2ccoc2)[nH]c2ncnn12 [Example 8-21]
4100

Specify measured IC50 for CC(C)c1c(-c2cncc(CO)c2)[nH]c2ncnn2c1=O [Example 12-3] .
22.5

Using the record for CC(C)c1c(-c2ccc(-n3cccn3)nc2)[nH]c2ncnn2c1=O [Example 11-128] , state its measured IC50.
12.3

Output IC50 of CC(C)(C)c1c(-c2cnn(-c3ccccc3)c2)[nH]c2ncnn2c1=O [Example 11-7]
772

For the molecule CC(C)c1c(-c2cnn(-c3cccc(Cl)c3)c2)[nH]c2ncnn2c1=O [Example 11-51] , give its measured IC50 value.
9.66

Read off the recorded IC50 for CC(C)c1c(C2=CCCCC2)[nH]c2ncnn2c1=O [Example 11-29]
399

For CC(C)c1c(-c2cccc(C#N)c2)[nH]c2ncnn2c1=O [Example 11-37] , write its IC50.
21.6

Name the recorded IC50 of the item CC(C)c1c(-c2ccc(N3CCOCC3)nc2)[nH]c2ncnn2c1=O [Example 11-127] in your answer.
11.6

Write down IC50 measured for item CC(C)c1c(-c2cc(C3CC3)cs2)[nH]c2ncnn2c1=O [Example 11-143]
79.3

For the molecule CC(C)c1c(-c2ccc3c(c2)OCCN3C)[nH]c2ncnn2c1=O [Example 11-105] , report IC50.
34.2

Give IC50 for O=c1cc(-c2ccccc2Cl)[nH]c2ncnn12 [Example 8-27]
10100

Report measured IC50; entry is CC(C)c1c(-c2cccc(C(O)C(F)(F)F)c2)[nH]c2ncnn2c1=O (stereo not shown) [Example 11-54]
31.4

----------
ASSAY SYSTEM: KDM5B (Homo sapiens (Human))
ASSAY NOTES: KDM5B TR-FRET Enzyme Activity Assay
STATED CONDITIONS: LANCE TR-FRET; 5 nM full-length recombinant KDM5B; ten point titration 100000 nM to 5.08 nM
Method: KDM5B TR-FRET Enzyme Activity Assay KDM5B enzymatic activity was determined with the LANCE (Lanthanide Chelate Excite) TR-FRET (Time-resolved fluorescence resonance energy transfer) assay. […] After 60 minutes incubation with detection reagents, reaction plates were read on a PerkinElmer EnVision plate reader using standard TR-FRET protocol. […] IC50 values were determined by 4 parameter robust fit of TR-FRET ratio values vs. (Log 10) compound concentrations.
QUANTITY MEASURED: IC50 (nM)
Reply numerically in nM, unit not repeated.

Entry CC(C)c1c(-c2cnn(C3CCCCO3)c2)[nH]c2ncnn2c1=O (stereo not drawn) needs its IC50 filled in; supply it.
7.36

Please look at this compound and report its IC50: CCn1cc(-c2[nH]c3ncnn3c(=O)c2C(C)C)cn1
6.27

Look up and state reported IC50 for CC(C)c1c(-c2cccc(CN3CCCCC3)c2)[nH]c2ncnn2c1=O
33.2

Specify reported IC50 for the compound shown: CC(C)c1c(-c2csc(-n3cccn3)n2)[nH]c2ncnn2c1=O
41.9

Report measured IC50; entry is CC(C)c1c(-c2csc(-c3ccccc3)n2)[nH]c2ncnn2c1=O
469

State its IC50: CC(C)c1c(-c2ccc(-n3ccnn3)cc2)[nH]c2ncnn2c1=O
8.59

Indicate its recorded IC50; the compound in question is CC(C)c1c(-c2ccc(N(C)C)cc2)[nH]c2ncnn2c1=O
36.9

Indicate its recorded IC50; the compound in question is CC(C)c1c(-c2ccnn2Cc2ccccc2)[nH]c2ncnn2c1=O
634

Provide IC50 value for the following compound: CC(C)c1c(-c2cccc(-n3cccn3)c2)[nH]c2ncnn2c1=O
21.2

----------
ASSAY SYSTEM: KDM5B (Homo sapiens (Human), UniProt Q9UGL1)
ASSAY NOTES: KDM5B TR-FRET Enzyme Activity Assay
STATED CONDITIONS: LANCE TR-FRET; 5 nM full-length recombinant KDM5B; ten point titration 100000 nM to 5.08 nM
pIC50: −log10 of the molar value.
Hi, to clarify the labels: T covers pIC50 from 7 upward, F covers anything below 7.

- SMILES STRUCTURE: "CC(C)c1c(-c2cccc(CC#N)c2)[nH]c2ncnn2c1=O"
  GROUP: "T"
- SMILES STRUCTURE: "CC(C)c1csc(-c2[nH]c3ncnn3c(=O)c2C(C)C)c1"
  GROUP: "T"
- SMILES STRUCTURE: "CC(C)c1c(-c2cccc(Oc3ccccc3)c2)[nH]c2ncnn2c1=O"
  GROUP: "F"
- SMILES STRUCTURE: "CC(C)c1c(-c2ccccc2Cl)[nH]c2ncnn2c1=O"
  GROUP: "F"
- SMILES STRUCTURE: "CC(C)c1c(-c2ccn(C(C)(C)C)c2)[nH]c2ncnn2c1=O"
  GROUP: "T"
- SMILES STRUCTURE: "CC(C)c1c(-c2ccc(-c3ccncc3)cc2)[nH]c2ncnn2c1=O"
  GROUP: "T"

Threshold query (pIC50 >= 7) on O=c1cc(C(F)(F)F)[nH]c2ncnn12
F

# bool: pIC50 of Cc1[nH]c2ncnn2c(=O)c1F >= 7
F

Determine whether this compound has pIC50 no lower than 7: CC(C)c1c(-c2ccc(N3CCN(C(C)C)CC3)cc2)[nH]c2ncnn2c1=O
T

Could you tell me if the measured pIC50 of CC(C)c1c(-c2ccc(NS(=O)(=O)C3CC3)cc2)[nH]c2ncnn2c1=O reaches 7 or more?
T

// inclusive: pIC50 at least 7? input: CC(C)c1c(-c2cnn(CC3(F)CCCC3)c2)[nH]c2ncnn2c1=O
T

Determine whether measured pIC50 meets or exceeds 7 for CC(C)c1c(-c2cnn3ncccc23)[nH]c2ncnn2c1=O
T

Record CCc1c(C)[nH]c2ncnn2c1=O ; criterion: pIC50 no lower than 7. Met?
F

In plain terms: is recorded pIC50 at least 7 for O=c1c(F)c(C(F)(F)F)[nH]c2ncnn12 ?
F

Please check the record CCc1c(C(F)(F)F)[nH]c2ncnn2c1=O and state if its pIC50 is at or above 7.
F

I'd appreciate it if you could say whether CC(C)c1c(-c2cnn3c2CCC3)[nH]c2ncnn2c1=O has pIC50 at least equal to 7.
T

Hi team, for CC(C)c1c(-c2ccc(N)cc2)[nH]c2ncnn2c1=O , is the recorded pIC50 at or above 7?
T
